- Tested on: Acinetobacter lwoffii
- ASSAY: Antimicrobial activity against Acinetobacter lwoffii isolate C15 harboring sul1 to sul3 genes assessed as antibiotic resistance breakpoint by agar dilution method
- Type: functional
For each record, write down the corresponding Activity.
Include the unit right after the number.

Provide reported Activity for each item, in the same order as listed.
1. CCn1cc(C(=O)O)c(=O)c2ccc(C)nc21
2. CN(C)[C@@H]1C(O)=C(C(N)=O)C(=O)[C@@]2(O)C(O)=C3C(=O)c4c(O)cccc4[C@@](C)(O)[C@H]3C[C@@H]12

1. 16 µg/mL
2. 8 µg/mL

`CN[C@@H]1[C@H](O[C@H]2[C@H](O[C@H]3[C@H](O)[C@@H](O)[C@H](N=C(N)N)[C@@H](O)[C@@H]3N=C(N)N)O[C@@H](C)[C@]2(O)C=O)O[C@@H](CO)[C@H](O)[C@H]1O` has a reported Activity of 16 µg/mL

###

- System: Psychrobacter frigidicola
- ASSAY: Antimicrobial activity against Psychrobacter frigidicola isolate C712 harboring sul1 to sul3 genes assessed as antibiotic resistance breakpoint by agar dilution method
- Format: functional
PARAMETER_MEASURED: Activity (µg/mL)
Answers are plain numbers, in µg/mL.

# SMILES, Activity (µg/mL)
measured = [
    ("CCn1cc(C(=O)O)c(=O)c2ccc(C)nc21", 16),
    ("COc1cc(Cc2cnc(N)nc2N)cc(OC)c1OC", 16),
    ("CN(C)[C@@H]1C(O)=C(C(N)=O)C(=O)[C@@]2(O)C(O)=C3C(=O)c4c(O)cccc4[C@@](C)(O)[C@H]3C[C@@H]12", 8),
]

`CN[C@@H]1[C@H](O[C@H]2[C@H](O[C@H]3[C@H](O)[C@@H](O)[C@H](N=C(N)N)[C@@H](O)[C@@H]3N=C(N)N)O[C@@H](C)[C@]2(O)C=O)O[C@@H](CO)[C@H](O)[C@H]1O` has a reported Activity of 16

###

- ASSAY: Antimicrobial activity against Psychrobacter sp. DY9-2 isolate C711 harboring sul1 to sul3 genes assessed as antibiotic resistance breakpoint by agar dilution method
- Format: functional
PARAMETER_MEASURED: Activity
Include the unit right after the number.

For orientation, consider the following solved cases.
# MOLECULE, PARAMETER_MEASURED, TEST_RESULT
measured = [
    ("CN(C)[C@@H]1C(O)=C(C(N)=O)C(=O)[C@@]2(O)C(O)=C3C(=O)c4c(O)cccc4[C@@](C)(O)[C@H]3C[C@@H]12 [TETRACYCLINE]", "Activity", "8 µg/mL"),
    ("COc1cc(Cc2cnc(N)nc2N)cc(OC)c1OC [TRIMETHOPRIM]", "Activity", "16 µg/mL"),
    ("CCn1cc(C(=O)O)c(=O)c2ccc(C)nc21 [NALIDIXIC ACID]", "Activity", "16 µg/mL"),
]

CN[C@@H]1[C@H](O[C@H]2[C@H](O[C@H]3[C@H](O)[C@@H](O)[C@H](N=C(N)N)[C@@H](O)[C@@H]3N=C(N)N)O[C@@H](C)[C@]2(O)C=O)O[C@@H](CO)[C@H](O)[C@H]1O [STREPTOMYCIN] has a reported Activity of 16 µg/mL

###

- Test system: Acinetobacter lwoffii
- ASSAY: Antimicrobial activity against Acinetobacter lwoffii isolate C15 harboring sul1 to sul3 genes assessed as antibiotic resistance breakpoint by agar dilution method
- Type: functional
For each record, write down the corresponding Activity.
One number for each entry, in µg/mL.

# SMILES, PARAMETER_MEASURED, TEST_RESULT
records = [
    ("O=C(N[C@H](CO)[C@H](O)c1ccc([N+](=O)[O-])cc1)C(Cl)Cl", "Activity", 16),
    ("NC[C@@H]1O[C@H](O[C@H]2[C@@H](O)[C@H](O[C@@H]3[C@@H](O)[C@H](N)C[C@H](N)[C@H]3O[C@H]3O[C@H](CN)[C@@H](O)[C@H](O)[C@H]3N)O[C@@H]2CO)[C@H](N)[C@@H](O)[C@@H]1O", "Activity", 8),
]

Now consider a different compound.
`COc1cc(Cc2cnc(N)nc2N)cc(OC)c1OC` has a reported Activity of 16

###

For each record, write down the corresponding Activity.
- Tested on: Aerococcus viridans
- ASSAY: Antimicrobial activity against Aerococcus viridans isolate PGS22 harboring sul1 to sul3 genes assessed as antibiotic resistance breakpoint by agar dilution method
- Assay type: functional

Provide reported Activity for each item, in the same order as listed.
1. CN[C@@H]1[C@H](O[C@H]2[C@H](O[C@H]3[C@H](O)[C@@H](O)[C@H](N=C(N)N)[C@@H](O)[C@@H]3N=C(N)N)O[C@@H](C)[C@]2(O)C=O)O[C@@H](CO)[C@H](O)[C@H]1O
2. CCn1cc(C(=O)O)c(=O)c2ccc(C)nc21
3. NC[C@@H]1O[C@H](O[C@H]2[C@@H](O)[C@H](O[C@@H]3[C@@H](O)[C@H](N)C[C@H](N)[C@H]3O[C@H]3O[C@H](CN)[C@@H](O)[C@H](O)[C@H]3N)O[C@@H]2CO)[C@H](N)[C@@H](O)[C@@H]1O
4. O=C(N[C@H](CO)[C@H](O)c1ccc([N+](=O)[O-])cc1)C(Cl)Cl
5. CN(C)[C@@H]1C(O)=C(C(N)=O)C(=O)[C@@]2(O)C(O)=C3C(=O)c4c(O)cccc4[C@@](C)(O)[C@H]3C[C@@H]12

["16 µg/mL", "16 µg/mL", "8 µg/mL", "16 µg/mL", "8 µg/mL"]

###

- System: Acinetobacter calcoaceticus
- ASSAY: Antimicrobial activity against Acinetobacter calcoaceticus isolate C36 harboring sul1 to sul3 genes assessed as antibiotic resistance breakpoint by agar dilution method
- Format: functional
PARAMETER_MEASURED: Activity (µg/mL)
Give bare numbers, in µg/mL.

For orientation, consider the following solved cases.
# COMPOUND, TEST_RESULT
measured = [
    ("CN[C@@H]1[C@H](O[C@H]2[C@H](O[C@H]3[C@H](O)[C@@H](O)[C@H](N=C(N)N)[C@@H](O)[C@@H]3N=C(N)N)O[C@@H](C)[C@]2(O)C=O)O[C@@H](CO)[C@H](O)[C@H]1O [STREPTOMYCIN]", 16),
    ("CN(C)[C@@H]1C(O)=C(C(N)=O)C(=O)[C@@]2(O)C(O)=C3C(=O)c4c(O)cccc4[C@@](C)(O)[C@H]3C[C@@H]12 [TETRACYCLINE]", 8),
]

Provide reported Activity for each item, in the same order as listed.
1. COc1cc(Cc2cnc(N)nc2N)cc(OC)c1OC [TRIMETHOPRIM]
2. CCn1cc(C(=O)O)c(=O)c2ccc(C)nc21 [NALIDIXIC ACID]
3. O=C(N[C@H](CO)[C@H](O)c1ccc([N+](=O)[O-])cc1)C(Cl)Cl [CHLORAMPHENICOL]

1. 16
2. 16
3. 16

###

- Tested on: Shigella flexneri
- ASSAY: Antimicrobial activity against Shigella flexneri isolate C506 harboring sul1 to sul3 genes assessed as antibiotic resistance breakpoint by agar dilution method
- Format: functional
For each record, write down the corresponding Activity.
Numbers only, in µg/mL.

For orientation, consider the following solved cases.
# MOLECULE, TARGET_ENTITY, PARAMETER_MEASURED, UNIT_DESCRIPTOR, TEST_RESULT
data = [
    ("CCn1cc(C(=O)O)c(=O)c2ccc(C)nc21 [NALIDIXIC ACID]", "Shigella flexneri", "Activity", "µg/mL", 16),
    ("CN(C)[C@@H]1C(O)=C(C(N)=O)C(=O)[C@@]2(O)C(O)=C3C(=O)c4c(O)cccc4[C@@](C)(O)[C@H]3C[C@@H]12 [TETRACYCLINE]", "Shigella flexneri", "Activity", "µg/mL", 8),
]

Now consider a different molecule.
Value (Activity, Shigella flexneri) for record O=C(N[C@H](CO)[C@H](O)c1ccc([N+](=O)[O-])cc1)C(Cl)Cl [CHLORAMPHENICOL] = 16

###

- ASSAY: Antimicrobial activity against Psychrobacter ikaite isolate C20 harboring sul1 to sul3 genes assessed as antibiotic resistance breakpoint by agar dilution method
- Type: functional
For each record, write down the corresponding Activity.
One number for each entry, in µg/mL.

For orientation, consider the following solved cases.
# SMILES, Activity, µg/mL
data = [
    ("CN(C)[C@@H]1C(O)=C(C(N)=O)C(=O)[C@@]2(O)C(O)=C3C(=O)c4c(O)cccc4[C@@](C)(O)[C@H]3C[C@@H]12", 8),
    ("CCn1cc(C(=O)O)c(=O)c2ccc(C)nc21", 16),
    ("COc1cc(Cc2cnc(N)nc2N)cc(OC)c1OC", 16),
]

Provide reported Activity for each item, in the same order as listed.
1. CN[C@@H]1[C@H](O[C@H]2[C@H](O[C@H]3[C@H](O)[C@@H](O)[C@H](N=C(N)N)[C@@H](O)[C@@H]3N=C(N)N)O[C@@H](C)[C@]2(O)C=O)O[C@@H](CO)[C@H](O)[C@H]1O
2. O=C(N[C@H](CO)[C@H](O)c1ccc([N+](=O)[O-])cc1)C(Cl)Cl

1. 16
2. 16

Each recorded value in this set is attributed to ChEMBL document CHEMBL1629633.
